# target_or_system: T1, BcnI H77N (UniProt Q8RNV8 1-238, H77N)
# T1 sequence: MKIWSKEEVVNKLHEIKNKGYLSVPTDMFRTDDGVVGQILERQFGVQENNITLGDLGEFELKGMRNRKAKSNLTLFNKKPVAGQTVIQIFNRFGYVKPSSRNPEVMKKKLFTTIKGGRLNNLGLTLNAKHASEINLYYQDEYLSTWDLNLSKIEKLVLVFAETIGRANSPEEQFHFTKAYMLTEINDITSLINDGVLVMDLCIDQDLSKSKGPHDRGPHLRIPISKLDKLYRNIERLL
# assay_details: EMSA
measurement_label: pKd
Please note pKd is a logarithmic value: minus log10 of concentration in mol/L. Answer with that number alone.

(Q) State, in one line, measured pKd of CG oligoduplex (cognate) (dsDNA) DNA 1: CGCACGACTTCCCGGAAGAGCACGC DNA 2: GTTGCGTGCTCTTCCGGGAAGTCGTGCG
(A) 9.52
